Target: SFRP-1 (Homo sapiens)
Sequence (Q8N474 32-314): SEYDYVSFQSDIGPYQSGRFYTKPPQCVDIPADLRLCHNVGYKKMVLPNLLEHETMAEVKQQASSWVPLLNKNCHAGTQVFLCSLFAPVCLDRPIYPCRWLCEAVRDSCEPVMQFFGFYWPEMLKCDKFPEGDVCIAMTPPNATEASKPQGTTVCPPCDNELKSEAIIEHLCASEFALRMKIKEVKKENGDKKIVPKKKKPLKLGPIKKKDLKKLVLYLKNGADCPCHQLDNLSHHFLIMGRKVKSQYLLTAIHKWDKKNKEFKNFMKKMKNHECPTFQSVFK
Experiment: Cell-based assay for in vitro measurement of SFRP-1/SARP2 antagonist activity (U2OS cells co-transfected with 16x TCF-tk-Luciferase reporter, Wnt and hSFRP-1);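 note: U2OS cells co-transfected with a TCF-tk luciferase reporter, a Wnt vector, hSFRP-1 or empty vector and CMV-βgal, luciferase luminescence read in cell lysates alongside βgal activity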
measured_property: log10(EC50) (log10 of the value in nM)
Quick note: numbers are log10 of EC50, with nM as the unit.

The recorded log10(EC50) for `CC(C)c1ccc(S(=O)(=O)c2ccccc2)cc1S(=O)(=O)NCCc1cccnc1` is 3.49

The recorded log10(EC50) for `CC(C)c1ccc(S(=O)(=O)c2ccccc2)cc1S(=O)(=O)NC1CCN(C(=O)OC(C)(C)C)CC1` is 3.00

The recorded log10(EC50) for `CC(C)c1ccc(S(=O)(=O)c2ccccc2)cc1S(=O)(=O)NC1CCN(C(=O)c2ccccc2)CC1` is 2.48

The recorded log10(EC50) for `CC(C)c1ccc(S(=O)(=O)c2ccccc2)cc1S(=O)(=O)NC1CCN(C(=O)c2ccccc2F)CC1` is 2.38

The recorded log10(EC50) for `CCOC(=O)NC(=S)N1CCC(NS(=O)(=O)c2cc(S(=O)(=O)c3ccc(F)cc3)ccc2C(C)C)CC1` is 3.03

The recorded log10(EC50) for `CC(C)(C)OC(=O)N[C@H]1CC[C@H](NS(=O)(=O)c2cc(S(=O)(=O)c3ccccc3)ccc2C(F)(F)F)CC1` is 2.35

The recorded log10(EC50) for `COC(=O)c1ccc(NC(=S)N2CCC(NS(=O)(=O)c3cc(S(=O)(=O)c4ccc(F)cc4)ccc3C(C)C)CC2)cc1` is 4.17
